Data provenance is patent US20240408222A1.

Test system: HT29
Assay: Cytotoxicity assay (Version 2, automated, AC50) with/without neutrophil elastase
Format: cell-based, human
Settings: HT29, without (−) neutrophil elastase, Version 2, activity concentration at −50%
AC50 values, listed per item
property_name: AC50

{"molecule": "CCCNC(=O)Nc1cccc(S(=O)(=O)Nc2cccc([C@@H](CC(=O)O)NC(=O)Nc3ccc(NC(=O)NCCOCCOCCOCCC(=O)N[C@@H](CC(=O)O)C(=O)N4CCC[C@H]4C(=O)N[C@@H](C(=O)N=[S@@](C)(=O)Cc4cc5cc(c4)O[C@@H](C)CCOc4cc(F)ccc4-c4nc(ncc4F)N5)C(C)C)cc3)c2)c1 (relative stereo) [Compound 39]", "reported": "100 to 1000 nM"}
{"molecule": "CCCNC(=O)Nc1cccc(S(=O)(=O)Nc2cccc([C@@H](CC(=O)O)NC(=O)Nc3ccc(NC(=O)NCCOCCOCCOCCC(=O)NCCCC[C@H](NC(=O)CCOCCOCCOCCNC(=O)Nc4ccc(NC(=O)N[C@H](CC(=O)O)c5cccc(NS(=O)(=O)c6cccc(NC(=O)NCCC)c6)c5)cc4)C(=O)NCCOCCOCCOCCC(=O)N[C@@H](CC(=O)O)C(=O)N4CCC[C@H]4C(=O)N[C@H](C(=O)N=[S@@](C)(=O)Cc4cc5cc(c4)OCCCCOc4cc(F)ccc4-c4nc(ncc4F)N5)C(C)C)cc3)c2)c1 [Compound 18]", "reported": "> 1000 nM"}
{"molecule": "CCCNC(=O)Nc1cccc(S(=O)(=O)Nc2cccc([C@@H](CC(=O)O)NC(=O)Nc3ccc(NC(=O)NCCOCCOCCOCCC(=O)N[C@@H](CC(=O)O)C(=O)N4CCC[C@H]4C(=O)N[C@H](C(=O)N=[S@@](C)(=O)Cc4cc5nc(c4)OCCCOc4cc(F)ccc4-c4cc(ncc4F)N5)C(C)C)cc3)c2)c1 (racemic) [Compound 37]", "reported": "100 to 1000 nM"}
{"molecule": "CCCNC(=O)Nc1cccc(S(=O)(=O)Nc2cccc([C@H](CC(=O)O)NC(=O)Nc3ccc(NC(=O)NCCOCCOCCOCCC(=O)N[C@@H](CCCCNC(=O)CCOCCOCCOCCNC(=O)Nc4ccc(NC(=O)N[C@H](CC(=O)O)c5cccc(NS(=O)(=O)c6cccc(NC(=O)NCCC)c6)c5)cc4)C(=O)NCCOCCOCCOCCC(=O)N[C@@H](CC(=O)O)C(=O)N4CCC[C@H]4C(=O)N[C@H](C(=O)N=S(C)(=O)Cc4cc5nc(c4)OCCCOc4cc(F)ccc4-c4cc(ncc4F)N5)C(C)C)cc3)c2)c1 (relative stereo) [Compound 32]", "reported": "> 1000 nM"}
{"molecule": "CCCNC(=O)Nc1cccc(S(=O)(=O)Nc2cccc([C@@H](CC(=O)[O-])NC(=O)Nc3ccc(NC(=O)NCCOCCOCCOCCC(=O)N[C@H](C(=O)N[C@@H](CCCNC(N)=O)C(=O)N=[S@@](C)(=O)Cc4cc5cc(c4)OCCCCOc4cc(F)ccc4-c4nc(ncc4F)N5)C(C)C)cc3)c2)c1.[Na+] [Compound 7]", "reported": "11 to 100 nM"}
